Source: paper PMC10687119

tested on: human red blood cells (RBCs); format: cell-based; conditions: red cells of human
Where a SMILES comes first, the peptide text is derived from it. [ ]: non-standard residue; d: D form. The star is where a group is joined. Lys(Me3) = C[N+](C)(C)CCCC[C@H](N)C(=O)O; Stearoyl = CCCCCCCCCCCCCCCCCC(=O)*
The compounds listed here are annotated with their HC50.

compound | HC50
CCCCCCCCCCCCCCCC(=O)N[C@@H](CCCCN)C(N)=O [Peptide 1P, C16-K-NH2] | >512 µg/mL

Kindly review the next compound as well.
CCCCCCCCCCCCCCCCCC(=O)N[C@@H](CCCC[N+](C)(C)C)C(=O)N[C@@H](CCCC[N+](C)(C)C)C(=O)N[C@@H](CCCC[N+](C)(C)C)C(=O)N[C@@H](CCCC[N+](C)(C)C)C(N)=O [Peptide 4Sq, C18-K(Me3)^+K(Me3)^+K(Me3)^+K(Me3)^+-NH2] (Stearoyl-[Lys(Me3)][Lys(Me3)][Lys(Me3)][Lys(Me3)]-NH2) yielded HC50 of >512 µg/mL
